assay overview: 1H NMR titration of di- and trivalent metals over UTP (KD1)
Assay type: binding
condition parameters: metal 0-1400 µM, UTP 239.2 or 250 µM, 293 K, 600 MHz, read-out: KD1, dissociation constant for the interaction of UTP with di- and trivalent metals
pKd: −log10 of the molar value.

compound structure string: [Cl][La]([Cl])[Cl]
pKd: 4.96
//
compound structure string: [Cl-].[Cl-].[Mg+2]
pKd: 4.09
//
compound structure string: [Cl][Lu]([Cl])[Cl]
pKd: 4.42
//
compound structure string: [Cl][Eu]([Cl])[Cl]
pKd: 4.55
//
compound structure string: [Cl][Ce]([Cl])[Cl]
pKd: 4.89
